testConditions: 298.15 K; 101 kPa; Liquid; Pycnometric method
valueType: mass density (kg/m3)
Answer in kg/m3, number only, no unit symbol.

IN: Value lookup for mass density; key = "CCCCO"
OUT: 805.6

IN: Please give the measured mass density for this molecule: C=C(C)C(=O)OCc1ccccc1 [benzyl methacrylate]
OUT: 1034.7

IN: Fill blank: measured mass density of the molecule "C=C(C)C(=O)O" is ____.
OUT: 1009.5

IN: Requested field: mass density. Item: C=C(C)C(=O)OCCO [2-hydroxyethyl 2-methyl-2-propenoate]
OUT: 1067.1

###

Kindly supply the reported viscosity values for the records listed here.
testConditions: 288.15 K; 101 kPa; Liquid; Capillary tube (Ostwald / Ubbelohde) method
Write down the numeric answer in mPa·s and omit the unit.

IN: # viscosity lookup, item "CCCCO"
OUT: 3.286

IN: Could you share which viscosity value was measured for C=C(C)C(=O)OCCO [2-hydroxyethyl 2-methyl-2-propenoate] ?
OUT: 8.234

IN: Sample "C=C(C)C(=O)O" — what was its viscosity?
OUT: 1.447

IN: Tell me the measured viscosity of C=C(C)C(=O)OCc1ccccc1 [benzyl methacrylate] , please.
OUT: 2.871
